# test protocol: Primary fluorescence-based thiol-reactive (MSTI) qHTS assay for identification of artifact compounds. (AID 1845221); note: nearly all actives have a fitted effect of over 65% in size
# condition summary: MSTI thiol-reactivity probe, 1 h; series mostly up to 53.8 µM
Inconclusive results are not listed. Calls of active or inactive are those of the source. Calls come from the whole dose curve; as a rule, active = well fitted inhibition curve with a large enough effect; inconclusive = small, poorly fitted or top-dose-only effect; inactive = no such curve, though single readings can be large or run the other way.
Thanks in advance; please answer with one of these: active, inactive

compound=CC(C)c1c(O)ccc2c1CC[C@H]1C(C)(C)CCC[C@]21C group_label=inactive

## Input Given CCCN(CCc1ccsc1)C1CCc2c(O)cccc2C1 (centres undefined) , state the outcome it received in this test.
## Output inactive

## Input Input CCN(CCNC(=O)Nc1ccccc1Br)c1cccc(C)c1
## Output active

## Input Input Cc1cc(NC(=O)NCCN2CCC(O)(Cc3ccccc3)CC2)c2ccccc2n1
## Output inactive

## Input Input C=C(C)C(=O)OC1CC2(C)OC(=CC2=O)C(=C)CC2OC(=O)C(=C)C12 (centres undefined)
## Output inactive

## Input Input C=C1CCCC2(C)CCC(C(C)(C)OC3OC(C)C(O)C(O)C3OC(=O)/C(C)=C\C)CC12 (centres undefined)
## Output inactive

## Input Input O=C(NCC1CCN(Cc2cccc(Cl)c2)CC1)[C@@H]1CCCN(c2ncnc3c2nc2n3CCCC2)C1
## Output inactive

## Input Input CC1CCC(=O)CC(SCC(O)C(=O)O)CCC(=O)O1 (centres undefined)
## Output inactive
